Experiment: physchem
Conditions: pH 7.5, aqueous buffer, thermodynamic from solid
Property: solubility

Compound	Value Observed
CCCOC(=O)c1cc(O)c(O)c(O)c1 [Propyl Gallate]	< 250 µg/mL

====

Test: physchem
Settings: pH 5, aqueous buffer, thermodynamic from solid

Molecule	solubility (µg/mL)
CCCOC(=O)c1cc(O)c(O)c(O)c1 [Propyl Gallate]	3000

====

Test: physchem
Settings: pH 9, aqueous buffer, thermodynamic from solid

Molecule	solubility
CCCOC(=O)c1cc(O)c(O)c(O)c1 [Propyl Gallate]	< 250 µg/mL
